# Method summary: Urinary elimination/recovery after 500 mg oral bolus of 13C5-C3G
# Format: in vivo, humans
# Condition details: urine; single 500 mg oral 13C5-C3G; mean ± SEM
Measured metric: Maximum concentration (nM)

O=Cc1c(O)cc(O)cc1O | 170
COc1ccc(C(=O)O)c(O)c1 [2-Hydroxy-4-methoxybenzoic acid] | 172
O=C(O)c1ccc(O)c(O)c1 | 337
COc1ccc(C(=O)O)cc1OS(=O)(=O)O [IsoVA-3-sulfate] | 822
O=C(O)c1ccc(OC2OC(C(=O)O)C(O)C(O)C2O)c(O)c1 (stereo not drawn) [PCA-4-glucuronide] | 233
COc1cc(C(=O)O)ccc1OS(=O)(=O)O [VA-4-sulfate] | 1682
O=Cc1ccc(O)cc1 [4-Hydroxybenzaldehyde] | 97

[1] O=C(O)Cc1ccc(O)c(O)c1 [3,4-Dihydroxyphenylacetic acid]
[2] COc1ccc(C(=O)O)cc1OC1OC(C(=O)O)C(O)C(O)C1O (stereo not drawn) [IsoVA-3-glucuronide]
Enquiry: Select the item whose Maximum concentration value is smaller, choosing between 1 and 2 . Let me know the label of the one you choose.
Return: 1
